System: BT-549
measurementProtocol: drug sensitivity score (DSS), CellTiter-Glo (DSS (AUC-based score)); higher = stronger drug effect (viability inhibition or cytotoxicity); extreme values may be limits of the assay
conditionParameters: incubation time: 72 h
Label n if drug sensitivity score falls below 2; label y in every other case.

These recorded examples may help you get a feel for the data.
compound: COc1cc2c(Oc3ccc(NC(=O)C4(C(=O)Nc5ccc(F)cc5)CC4)cc3F)ccnc2cc1OCCCN1CCOCC1 [Foretinib]
measuredTarget: BT-549
label: n
--
compound: CC(C)(C)Cn1c(N)nc2ccc(-c3[nH]c(C(C)(C)C)nc3-c3ccc(F)cc3)nc21
measuredTarget: BT-549
label: n
--
compound: CCc1cnn2c(NCc3ccc[n+]([O-])c3)cc(N3CCCC[C@H]3CCO)nc12 [Dinaciclib]
measuredTarget: BT-549
label: y
--
compound: CN1CCc2c(c3ccccc3n2Cc2ccc(C(=O)NO)cc2)C1 [Tubastatin A]
measuredTarget: BT-549
label: n

Dear colleague, could you confirm whether CN1CCN(c2nc(C3=C(c4c[nH]c5ccccc45)C(=O)NC3=O)c3ccccc3n2)CC1 [Sotrastaurin] has drug sensitivity score at or above 2?
n

Check the entry Cc1cc2c(F)c(Oc3ncnn4cc(OC[C@@H](C)O)c(C)c34)ccc2[nH]1 [Brivanib] : does drug sensitivity score equal or exceed 2?
n

For this compound, is measured drug sensitivity score 2 or higher? CC[C@H](CC#N)OC(=O)N[C@@H](C)c1cccc(NC(=O)Nc2ccc(-c3cnco3)c(OC)c2)c1 [AVN944]
y

drug sensitivity score >= 2 for CC(C)C(=O)Nc1ccc([N+](=O)[O-])c(C(F)(F)F)c1 [Flutamide] ?
n

The measurements presented in this section are drawn from the supplement of paper PMC4862054.
